# test_system: Cellular tumor antigen p53 (Homo sapiens) (UniProt P04637)
# Sequence (P04637 whole entry, looked up): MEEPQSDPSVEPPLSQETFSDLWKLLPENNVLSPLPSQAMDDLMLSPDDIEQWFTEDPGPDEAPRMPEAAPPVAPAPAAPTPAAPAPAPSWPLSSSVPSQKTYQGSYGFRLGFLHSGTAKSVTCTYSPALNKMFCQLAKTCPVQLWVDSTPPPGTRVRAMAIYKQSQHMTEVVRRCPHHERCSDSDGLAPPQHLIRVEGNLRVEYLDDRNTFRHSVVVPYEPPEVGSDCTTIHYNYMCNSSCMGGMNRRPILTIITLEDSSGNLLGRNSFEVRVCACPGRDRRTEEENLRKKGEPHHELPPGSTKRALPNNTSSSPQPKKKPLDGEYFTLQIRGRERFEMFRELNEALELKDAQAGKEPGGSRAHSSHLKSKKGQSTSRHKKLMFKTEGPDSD
# assay_explanation: Primary qHTS for small molecule compounds that upregulate eGFP-tagged delta133p53alpha (in N-terminal) cells. (AID 2060322);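 also: cells pre-induced with doxycycline then dosed without doxycycline; nearly all actives have a fitted effect of over 75% in size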
# reported_conditions: NCI-H358 eGFP-delta133p53alpha fluorescence, 24 h; active compounds read high
Inconclusive results are not listed.
# label = Fulfilled if activation >= -10% else Not fulfilled

Record O=c1[nH]c2cc([N+](=O)[O-])c([N+](=O)[O-])cc2[nH]c1=O ; criterion: activation no lower than -10%. Met? Fulfilled

###

# test_system: Retinaldehyde dehydrogenase 3 (Homo sapiens)
# assay_explanation: qHTS for Inhibitors of the Aldehyde Dehydrogenase Family (ALDH1A3) Validation screen (AID 2061312); also: nearly all actives have a fitted effect of over 45% in size
# reported_conditions: ALDH1A3 enzyme inhibition qHTS validation, fluorescence; series mostly up to 84.7 µM
Records with an inconclusive call do not appear. Activity calls are given as the source filed them. Calls come from the whole dose curve; as a rule, active = well fitted inhibition curve with a large enough effect; inconclusive = small, poorly fitted or top-dose-only effect; inactive = no such curve, though single readings can be large or run the other way.
reported_endpoint: outcome

Param readout= outcome; system= Retinaldehyde dehydrogenase 3 (Homo sapiens); entry= CC1(C)S[C@@H]2[C@H](NC(=O)[C@H](NC(=O)N3CCN(S(C)(=O)=O)C3=O)c3ccccc3)C(=O)N2[C@H]1C(=O)O ; returns value. inactive

Param readout= outcome; system= Retinaldehyde dehydrogenase 3 (Homo sapiens); entry= CCOC(=O)CSc1nc2c(sc3ccccc32)c(=O)n1CCCN1CCCC1 ; returns value. inactive

Param readout= outcome; system= Retinaldehyde dehydrogenase 3 (Homo sapiens); entry= NCCCCNCCCN ; returns value. inactive

Param readout= outcome; system= Retinaldehyde dehydrogenase 3 (Homo sapiens); entry= Cc1c(NC(=O)N2CCOCC2)ccc2c1c1ccccc1n2C(C)C ; returns value. inactive

Continuing:
Param readout= outcome; system= Retinaldehyde dehydrogenase 3 (Homo sapiens); entry= CC(C)C(=O)Nc1ncc(-c2cc(C(F)F)nn2-c2c(Cl)cccc2Cl)s1 ; returns value. inactive
